assayed_system: T1, hCD138 peptide AGEGPKEGEAVVLP (human)
T1 construct: Portion of the linear CD138 peptide used for immunization; also the peptide in the crystal structure; also called syndecan-1 peptide
T1 peptide: AGEGPKEGEAVVLP
assay_procedure: ELISA, plate-coated hCD138 peptide
experimental_endpoint: pEC50
Would you please state pEC50, meaning minus log10 of the concentration in mol/L, as a bare number?

# example entries with known answers
binder: F6 f2kf-rep (antibody, V domains shown, Humanized F12P16F6 expressed as whole antibody with human constant regions (kappa light chain)) VH: QVQLQQSGAEVVKPGASVKLSCKASGYTFTSYYLYWVKKAPGQGLDWIGEIYPRSGGTNINEKFLSRVTITADESTSTVYMQLSSLTSEDSAVYYCTRSLLYWGQGTTLTVSS VL: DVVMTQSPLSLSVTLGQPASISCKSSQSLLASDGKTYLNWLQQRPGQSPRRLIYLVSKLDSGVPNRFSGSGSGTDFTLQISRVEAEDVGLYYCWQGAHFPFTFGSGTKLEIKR
pEC50: 9.14
--
binder: F6 f1ka-rep (antibody, V domains shown, Humanized F12P16F6 expressed as whole antibody with human constant regions (kappa light chain)) VH: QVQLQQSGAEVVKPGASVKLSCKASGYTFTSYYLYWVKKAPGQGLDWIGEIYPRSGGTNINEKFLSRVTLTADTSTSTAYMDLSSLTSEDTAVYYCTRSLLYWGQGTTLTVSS VL: DVVMTQTPLSLSVTPGQPASISCKSSQSLLASDGKTYLNWLLQRPGQSPKRLIYLVSKLDSGVPNRFSGSGSGTDFTLQISRVEAEDVGLYYCMQGAHFPFTFGGGTKVEIKR
pEC50: 9.13

Shifting focus to the binder that follows.
input: Entry F6 ckf-rep (antibody, V domains shown, Humanized F12P16F6 expressed as whole antibody with human constant regions (kappa light chain)) VH: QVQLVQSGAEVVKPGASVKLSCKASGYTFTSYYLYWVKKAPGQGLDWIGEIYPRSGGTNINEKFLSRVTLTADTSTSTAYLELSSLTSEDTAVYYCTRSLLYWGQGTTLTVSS VL: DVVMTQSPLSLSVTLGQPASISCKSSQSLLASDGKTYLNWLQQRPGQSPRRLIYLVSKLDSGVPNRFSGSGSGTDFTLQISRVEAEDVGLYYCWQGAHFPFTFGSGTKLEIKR : reported pEC50 = ?
output: 9.01
